- Assay Summary: HepG2 liver cancer cell viability effects, profiling panel, resazurin fluorescence, 24 h, PK04 Diversity Set (AID 1172); further: test concentration not given here
- Conditions Used: higher = more signal
# if value of z-score reaches 0.6, tag fulfilled; if it stays below, tag not fulfilled

Exam item: decide whether the reported z-score for `Cc1ccc(S[C@]2(C(=O)O)CC(=O)N(Cc3ccccc3)[C@@H]2c2ccc(CO)cc2)cc1` is at least 0.6.
fulfilled

And for `CCCNC(=O)[C@@H]1c2ccccc2C(=O)N(C2CCCCC2)[C@H]1c1ccc(CO)cc1` ?
not fulfilled

Another: `COC(=O)[C@@]1(Cc2ccccc2N=[N+]=[N-])N=C(c2ccc(OCCCO)cc2)O[C@H]1c1ccccc1CN=[N+]=[N-]`
not fulfilled

What about this compound? `CCOC(=O)C[C@H]1[C@H](OC(=O)c2cc3ccccc3oc2=O)[C@@H](NC(=O)c2ccc3ccccc3c2)c2cc(OCCCO)ccc2N1C(=O)c1ccc2ccccc2n1`
not fulfilled

And for `C[C@]1(C(=O)NCCN2CCOCC2)c2ccccc2C(=O)N(Cc2ccccc2)[C@H]1c1ccc(CO)cc1` ?
fulfilled

// same read-out, input: `O=C/C=C/c1ccc(/C=C/c2ccccc2)cc1`
not fulfilled

Can you handle C=CCC(OC(C)=O)[C@@H]1[C@@H](N(Cc2cccc3ccccc23)C(=O)c2ccc(C)cc2)c2cc(OCCCO)ccc2N1C(=O)c1ccc(-c2ccccc2)cc1 (some centres not stated) next?
not fulfilled
